# TEST SYSTEM: LIGHT (human, UniProt O43557 74-240, limits assumed)
# Sequence (O43557 74-240 limits assumed): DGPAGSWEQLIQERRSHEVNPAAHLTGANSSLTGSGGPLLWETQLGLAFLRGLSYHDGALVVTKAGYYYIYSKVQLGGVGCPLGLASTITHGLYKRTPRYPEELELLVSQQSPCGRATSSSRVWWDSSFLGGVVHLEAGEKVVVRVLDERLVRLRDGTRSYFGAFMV
# ASSAY NAME: phage ELISA

BINDER	binding result
I025B06 (scFv) scFv: QVQLVQSGAEVKKPGSSVKVSCRASGGSFNHAISWVRQAPGRGLEWMGGILPMYGTANYAQKFQGRVTITADKLTNTVYMDLSRLRYEDTAVYYCARELGLSIVGATTGALDMWGKGTLVTVSSGGGGSGGGGSGGGGSAQSVLTQPPSVSAAPGQKVTISCSGSSSNIGNNYVSWYQQIPGTAPKLLIYENNKRPSGIPDRFSGSKSGASAALDITGLQTGDEADYYCGTWHSSQVVFGGGTKLTVLG	no binding
I071B03 (scFv) scFv: QVQLQQSGAEVKKPGASVKVSCKASGYTFTKYTMHWVRQAPGQGPEWMGWINGGSGDTKYSRKFQGRVTITKDTSASAAYMELSSLGSEDTALYYCARATYDPLTGYSFDGFDIWGQGTMVTVSSGGGGSGGGGSGGGGSQSVLTQPASVSGSPGQSITISCTGTSSDVGGYNYVSWYQQHPGKAPKLMIYEGSKRPSGVSNRFSGSKSGNTASLTISGLQAEDEADYYCSSYTTRSTRVFGGGTKLTVLD	no binding
I068B04 (scFv) scFv: QVQLVQSGAEVKKPGSSVKVSCKASGGTVSSRTISWVRQAPGQGLEWMGGSLPPSGAPIYAQKFQGRVAITADALTNTAFMELRSLKSDDTAVYYCARDQGRYLDLWGRGTLVTVSSGGGGSGGGGSGGGGSALPVLTQPPSASATPGQRVTISCSGSSSNIGSNYVYWYQQLPGTAPKVLIYRNNQRPSGVPDRFSGSRSGTSASLAISGLRSEDEADYYCATWDDSLSGPVFGGGTKVTVLG	no binding
